Read-out: Vascular cell adhesion molecule 1 (VCAM1), VCAM1 (gene 7412)
Test: BSK_CASM3C_VCAM1: BioMAP Diversity Plus: CASM3C Assay for Vascular cell adhesion molecule 1 (VCAM1) Biomarker Activity (AID 2283055);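 further: VCAM-1 protein level quantified by ELISA on the cells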
Conditions: primary human coronary artery smooth muscle cells; actives raise or lower the signal
Active and inactive are the calls of the source. How the source made its calls: active means hit-call score of the fitted dose curve at least 0.9, where 1 is the maximum; inactive means score below 0.9.
// classify into active, inactive

Example cases with answers are listed next.
[[record]]
compound = "c1ccc2sc(SNC3CCCCC3)nc2c1"
group = "inactive"

[[record]]
compound = "CC1(C)[C@H](C(=O)O[C@H](C#N)c2cccc(Oc3ccccc3)c2)[C@@H]1/C=C(\\Cl)C(F)(F)F"
group = "inactive"

[[record]]
compound = "O=S(=O)(C(Cl)(Cl)Cl)C(Cl)(Cl)Cl"
group = "active"

[[record]]
compound = "Cc1cc(C)cc(C)c1"
group = "inactive"

[[record]]
compound = "CC(C=O)Cc1ccc2c(c1)OCO2 (stereo not drawn)"
group = "inactive"


Prompt line: Given O=C(CCl)NCO , state the outcome it received in this test.
Response line: inactive

Prompt line: Given Cc1cc(C(C)(C)c2ccc(O)c(C)c2)ccc1O , state the outcome it received in this test.
Response line: active

Prompt line: Given N#Cc1cccnc1 , state the outcome it received in this test.
Response line: inactive

Prompt line: Given COCC(=O)N(c1c(C)cccc1C)[C@H](C)C(=O)OC , state the outcome it received in this test.
Response line: inactive

Prompt line: Given Cc1ccc(OP(=O)(Oc2ccc(C)cc2C)Oc2ccc(C)cc2C)c(C)c1 , state the outcome it received in this test.
Response line: inactive

Prompt line: Given CC(C)N(C(=O)CCl)c1ccccc1 , state the outcome it received in this test.
Response line: active

Prompt line: Given CCCCOC(=O)COC(=O)c1ccccc1C(=O)OCCCC , state the outcome it received in this test.
Response line: inactive

Prompt line: Given Clc1cccc(Cl)c1 , state the outcome it received in this test.
Response line: inactive
